meta.source: ChEMBL document CHEMBL1201862

- Test system: MDA-MB-231
- ASSAY_PROTOCOL: NCI tumour cell line growth inhibition, 48 h
Active and inactive are the calls of the source. Cut-off read from the data, not from the text of the source: active = GI50 up to about 1.1 µM and inactive = higher.
// classify into class 1 (active), class 0 (inactive)

Answered examples (6):
Tell me the assay call for COc1cc2c(c(OC)c1)[C@H](C)N(Cc1ccccc1)C(C)C2 (stereo partly specified) please. class 0

Tell me the assay call for "CCOC(=O)c1cc2c3ccn(Cc4ccccc4)c3c3c(C)noc3c2[nH]1" please. class 0

Tell me the assay call for "CN1/C(=C\N=O)C(C)(C)N(O)C1(C)C" please. class 0

Tell me the assay call for COC(=O)[C@@H]1CC(C(C[N+](=O)[O-])c2ccc(O[Si](C)(C)C(C)(C)C)cc2)C(=O)N1C(=O)OC(C)(C)C (stereo partly specified) please. class 0

Tell me the assay call for "COc1ccc(Nc2nc(N)c(C(=O)c3cccs3)s2)cc1" please. class 0

Tell me the assay call for "N#Cc1c(-c2ccc(Cl)cc2)cc(-c2nc3ccccc3[nH]2)nc1N" please. class 0

Others:
Tell me the assay call for "NC(=O)c1ccc[n+](C2=C([N-]S(=O)(=O)c3ccccc3)C(=O)c3ccccc3C2=O)c1" please. class 0

Tell me the assay call for "COc1cc2ccccc2c2cc([N+](=O)[O-])oc12" please. class 1

Tell me the assay call for "Cc1nc2cc(/N=N/c3c(O)ccc4ccccc34)ccc2[nH]1" please. class 0

Tell me the assay call for "O=S(=O)(Cc1nc2ccccc2s1)c1nc2ccccc2s1" please. class 0

Tell me the assay call for CCOP(=O)(OCC)OC1c2[nH]ccc2-c2cc(C(=O)OC)[nH]c2C1OC (stereo unspecified) please. class 0

* * *

- Test system: NCI-H23
- ASSAY_PROTOCOL: NCI tumour cell line growth inhibition, 48 h
The source made the active and inactive calls. Rule as the data show it: active = GI50 up to about 1.1 µM and inactive = higher.
Would you mind telling me the reported GI50 of each entry?

# annotated cases, reported GI50 shown
Query GI50 for OCc1cc2c([nH]c3ccccc32)c(C(O)CO)n1 (stereo not given) > 100 µM (inactive)

Query GI50 for "CC(C)(C)Sc1nnc(SC(C)(C)C)c2c(SC(C)(C)C)nnc(O)c12" 10.9 µM (inactive)

Query GI50 for CC(=O)OCC1OC(NC(=O)N(CCCl)N=O)C(OC(C)=O)C(OC(C)=O)C1OC(C)=O (stereo not given) > 100 µM (inactive)

Query GI50 for COC(O)C(=O)c1c2c(cc3c1CCC3)CCCC2 (stereo not given) 10.7 µM (inactive)

Query GI50 for "C/C(=N\NC(=O)c1ccncc1)c1ccccc1Cl" > 100 µM (inactive)

Query GI50 for "O=C(Nc1ccc(Cl)cc1)c1cc(S(=O)(=O)Nc2n[nH]c(=O)[nH]2)c(SSc2cc(Cl)c(C(=O)Nc3ccc(Cl)cc3)cc2S(=O)(=O)Nc2n[nH]c(=O)[nH]2)cc1Cl" > 100 µM (inactive)

Query GI50 for "CN1/C(=C\N=O)C(C)(C)N(O)C1(C)C" > 100 µM (inactive)

Query GI50 for Cc1ccc(C2OC(COCc3ccc(Cl)cc3)C(OCc3ccc(Cl)cc3)C2O)cc1 (stereo not given) 6.44 µM (inactive)

Parameter requested: GI50. Apply to each item below.
1. O=C1OC[C@@H]2Cc3c([nH]c4ccccc34)[C@@H](c3cc(O)c(O)c(O)c3)N12
2. CC1=C2C=CC(=O)C[C@@]2(C)CCC1

["29.4 µM (inactive)", "> 100 µM (inactive)"]

* * *

- System: COLO 205
- ASSAY_PROTOCOL: NCI tumour cell line growth inhibition, 48 h
Calls of active or inactive are those of the source. Cut-off read from the data, not from the text of the source: active = GI50 up to about 1.1 µM and inactive = higher.
// classify into 1 (active), -1 (inactive)

Tell me the assay call for CC(C)C1=CCC2C(=C1)CCC1C(C)(C(=O)O)CCCC21C (centres undefined) please. -1

Others:
Tell me the assay call for CCC(C(=O)c1ccc(OC)c(OC)c1)N(C(=O)C(F)(F)F)C(C)c1ccccc1 (centres undefined) please. -1

Tell me the assay call for "O=CNCCCN1CCN(CCCNC=O)CC1" please. -1

Tell me the assay call for "O=c1c2ccccc2nc(-c2ccccc2)n1NC(=S)Nc1ccccc1" please. -1

* * *

Would you mind telling me the reported GI50 of each entry?
- Tested on: A498
- ASSAY_PROTOCOL: NCI tumour cell line growth inhibition, 48 h
Calls of active or inactive are those of the source. No stated cut-off is given here; in the data, active = GI50 up to about 1.1 µM and inactive = higher. Non-standard residues stand in square brackets, D forms with d. Residues, ends and D or L forms follow the SMILES beside them. *: point of attachment. Ac5c = NC1(C(=O)O)CCCC1; Cbz = O=C(OCc1ccccc1)*; Boc = CC(C)(C)OC(=O)*; tBu = CC(C)(C)*

Supply GI50 measured with A498 for "Nn1c(=S)[nH]nc(/C=C/c2c(O)ccc3ccccc23)c1=O" . 16.9 µM (inactive)

Supply GI50 measured with A498 for "COc1cc([C@@H]2Oc3cc4oc(-c5ccccc5)cc(=O)c4c(O)c3O[C@H]2OC)ccc1O" . 14.3 µM (inactive)

Supply GI50 measured with A498 for COC(O)C(=O)c1c2c(cc3c1CCC3)CCCC2 (configuration not stated) . 13.5 µM (inactive)

Parameter requested: GI50. Apply to each item below.
1. Cc1cc(N(CCC#N)CCC#N)ccc1C(/N=N/c1ccc(Cl)cc1)=N\NC(=O)c1ccccc1
2. COc1ccc(C(=O)/C=C/c2ccc(OCCSCCCCCCCCCCSCCOc3ccc(/C=C/C(=O)c4ccc(OC)c(OC)c4)cc3)cc2)cc1OC
3. c1ccc2c(C3CCN(CCN4CCOCC4)C3)c[nH]c2c1 (configuration not stated)

["13.6 µM (inactive)", "> 100 µM (inactive)", "> 100 µM (inactive)"]

Parameter requested: GI50. Apply to each item below.
1. O=C1C(Cl)=C(Cl)C(=O)N1c1cccc(C(F)(F)F)c1
2. CC(=O)/C=C/C1=C(C)CCCC1(C)CC(C)C (configuration not stated)
3. CC(=O)c1cccc(C)c1C(=O)O
4. COc1ccc(Nc2nc(N)c(C(=O)c3cccs3)s2)cc1
5. COc1cc2c(cc1O)C1Cc3ccc(OC)c(O)c3C(C2)N1C (configuration not stated)
6. CCOC(=O)C(=O)Nc1ccccc1C
7. O=C(O)COc1ccc(C(=O)/C(SS/C(C(=O)c2ccc(OCC(=O)O)c(Cl)c2Cl)=C2\C=C(c3ccccc3Cl)SS2)=C2/C=C(c3ccccc3Cl)SS2)c(Cl)c1Cl
8. O=C1OC2C(O)COC2(O)C1(O)Cc1c[nH]c2ccccc12.O=C1OC2C(O)COC2(OCc2c[nH]c3ccccc23)C1O (configuration not stated)

1. > 100 µM (inactive)
2. 24.2 µM (inactive)
3. > 100 µM (inactive)
4. 6.68 µM (inactive)
5. > 100 µM (inactive)
6. > 100 µM (inactive)
7. 34.7 µM (inactive)
8. > 100 µM (inactive)

Parameter requested: GI50. Apply to each item below.
1. CN1CCN(c2ccc3c(c2)NCC(=O)N3)CC1
2. Cc1nc2[nH]ncn2c(=O)c1CCCl
3. CCOC(=O)C(C(=O)OCC)P(=S)(S)c1ccccc1 (configuration not stated)
4. CCOC(=O)C1=NNC(C(=O)c2ccccc2)C1c1ccccc1 (configuration not stated)
5. Cc1nc2cc(/N=N/c3c(O)ccc4ccccc34)ccc2[nH]1
6. Sc1nc2c(c(-c3nc(S)nc4c3CCCCCCCCCC4)n1)CCCCCCCCCC2
7. O=C(O)COc1ccc(C(=O)/C(SS/C(C(=O)c2ccc(OCC(=O)O)c(Cl)c2Cl)=C2\C=C(c3ccc(Br)cc3)SS2)=C2/C=C(c3ccc(Br)cc3)SS2)c(Cl)c1Cl
8. COC(=O)C1(NC(=O)C(Cc2ccccc2)NC(=O)C(NC(=O)C(CCCCNC(=O)OC(C)(C)C)NC(=O)C(Cc2c[nH]c3ccccc23)NC(=O)C(Cc2ccccc2)NC(=O)OCc2ccccc2)C(C)OC(C)(C)C)CCCC1 (configuration not stated) (Cbz-FWK(Boc)T(tBu)F[Ac5c]-OMe; configuration not given here)

1. > 100 µM (inactive)
2. > 10 µM (inactive)
3. > 100 µM (inactive)
4. 25.1 µM (inactive)
5. > 55 µM (inactive)
6. > 100 µM (inactive)
7. 18.2 µM (inactive)
8. > 10 µM (inactive)

Parameter requested: GI50. Apply to each item below.
1. O=C1Nc2ccccc2/C1=N/Nc1ccccc1Cl
2. COc1cc([C@@H]2c3cc4c(cc3[C@@H](NCc3cccc(C#N)c3)C3COC(=O)[C@@H]32)OCO4)cc(OC)c1O (some centres not stated)
3. C[C@@H]1C2=CC[C@@]3(C)C(CCC3[C@H](C)[C@H]3C[C@@]4(C)O[C@@](c5cccnc5)(O3)OC4(C)C)[C@@H]2C2OC2[C@@]12CCC(=O)O2 (some centres not stated)
4. CC1CC[C@@]2(OC1)OC1C[C@H]3[C@@H]4CC[C@H]5CC(OC6OC(CO)C(OC7OC(CO)C(O)C(O)C7O)C(O)C6O)CCC5(C)[C@H]4CCC3(C)C1[C@@H]2C (some centres not stated)
5. C/C(=N\NC(=S)N1CCN(C2CCCCCC2)CC1)c1ccccn1
6. CCOC(=O)C1C(=O)CC(O)(c2ccccc2)C(C(=O)OCC)C1c1ccc(N(C)C)cc1 (configuration not stated)
7. C=CCOc1ccc(C(=N/NC(=O)c2ccccc2)/N=N/c2ccc(C)cc2)cc1OC

18.7 µM (inactive)
1.43 µM (inactive)
> 100 µM (inactive)
8.65 µM (inactive)
1.49 µM (inactive)
31.6 µM (inactive)
25.6 µM (inactive)
